# RUN_DESCRIPTION: Kinetic solubility analysis (CLND: total chemiluminescent nitrogen determination)
# MEASUREMENT_PARAMETERS: 1×PBS buffer (pH 7.4), 1.0% DMSO, 24-hour incubation at ambient temperature, maximum theoretical concentration 100 μM
READOUT_NAME: pH 7 solubility (μM)
Express your answer in μM, writing the number without its unit.

Some compounds with known pH 7 solubility results, for comparison:
Measured pH 7 solubility, "CC(C)(C#Cc1ccc(-c2ccc(Cl)c3c(N(C(=O)[C@H]4C[C@H]4C(=O)OCOP(=O)(O)O)S(C)(=O)=O)nn(CC(F)(F)F)c23)c([C@H](Cc2cc(F)cc(F)c2)NC(=O)Cn2nc(C(F)(F)F)c3c2C(F)(F)[C@@H]2C[C@H]32)n1)S(C)(=O)=O" : 71

Entry "CC(C)(C#Cc1ccc(-c2ccc(Cl)c3c(N(C(=O)[C@H]4C[C@H](C(=O)O)C4)S(C)(=O)=O)nn(CC(F)(F)F)c23)c([C@H](Cc2cc(F)cc(F)c2)NC(=O)Cn2nc(C(F)(F)F)c3c2C(F)(F)[C@@H]2C[C@H]32)n1)S(C)(=O)=O" ; pH 7 solubility = 15

Lab book: pH 7 solubility of "CC(C)(C#Cc1ccc(-c2ccc(Cl)c3c(N(C(=O)[C@@H]4C[C@@H]4COP(=O)(O)O)S(C)(=O)=O)nn(CC(F)(F)F)c23)c([C@H](Cc2cc(F)cc(F)c2)NC(=O)Cn2nc(C(F)(F)F)c3c2C(F)(F)[C@@H]2C[C@H]32)n1)S(C)(=O)=O" noted as 61

pH 7 solubility reading for "CC(C)(C#Cc1ccc(-c2ccc(Cl)c3c(N(C(=O)N4CCOC[C@H]4C(=O)OCOP(=O)(O)O)S(C)(=O)=O)nn(CC(F)(F)F)c23)c([C@H](Cc2cc(F)cc(F)c2)NC(=O)Cn2nc(C(F)(F)F)c3c2C(F)(F)[C@@H]2C[C@H]32)n1)S(C)(=O)=O" : 17

// recorded pH 7 solubility for "CC(C)(C#Cc1ccc(-c2ccc(Cl)c3c(N(C(=O)[C@H]4C[C@H](N)C4)S(C)(=O)=O)nn(CC(F)(F)F)c23)c([C@H](Cc2cc(F)cc(F)c2)NC(=O)Cn2nc(C(F)(F)F)c3c2C(F)(F)[C@@H]2C[C@H]32)n1)S(C)(=O)=O" : 1

For reference, reported pH 7 solubility for "CC(C)(C#Cc1ccc(-c2ccc(Cl)c3c(N(C(=O)C4CNC4)S(C)(=O)=O)nn(CC(F)(F)F)c23)c([C@H](Cc2cc(F)cc(F)c2)NC(=O)Cn2nc(C(F)(F)F)c3c2C(F)(F)[C@@H]2C[C@H]32)n1)S(C)(=O)=O" stands at 1

Noted for CC(C)(C#Cc1ccc(-c2ccc(Cl)c3c(NS(C)(=O)=O)nn(CC(F)(F)F)c23)c([C@H](Cc2cc(F)cc(F)c2)NC(=O)Cn2nc(C(F)(F)F)c3c2C(F)(F)[C@@H]2C[C@H]32)n1)S(C)(=O)=O [Intermediate 5, reference compound] : its pH 7 solubility reads 0.32

The reported value for "CC(C)(C#Cc1ccc(-c2ccc(Cl)c3c(N(C(=O)N4CCOC[C@@H]4CN(CC(=O)O)C(=O)OCOP(=O)(O)O)S(C)(=O)=O)nn(CC(F)(F)F)c23)c([C@H](Cc2cc(F)cc(F)c2)NC(=O)Cn2nc(C(F)(F)F)c3c2C(F)(F)[C@@H]2C[C@H]32)n1)S(C)(=O)=O" in terms of pH 7 solubility is 100

Continuing:
Lab note: "CC(C)(C#Cc1ccc(-c2ccc(Cl)c3c(N(C(=O)N4CCC[C@H]4CN)S(C)(=O)=O)nn(CC(F)(F)F)c23)c([C@H](Cc2cc(F)cc(F)c2)NC(=O)Cn2nc(C(F)(F)F)c3c2C(F)(F)[C@@H]2C[C@H]32)n1)S(C)(=O)=O" gave pH 7 solubility of 14

"CC(C)(C#Cc1ccc(-c2ccc(Cl)c3c(N(C(=O)N4CC(C(=O)O)C4)S(C)(=O)=O)nn(CC(F)(F)F)c23)c([C@H](Cc2cc(F)cc(F)c2)NC(=O)Cn2nc(C(F)(F)F)c3c2C(F)(F)[C@@H]2C[C@H]32)n1)S(C)(=O)=O" has a reported pH 7 solubility of 100

---

# RUN_DESCRIPTION: Solubility in simulated intestinal fluids (FaSSIF / FeSSIF)
# MEASUREMENT_PARAMETERS: fed state simulated intestinal fluid (FeSSIF), 25 °C, fessif, thermodynamic from solid
Entries and their measured solubility follow.
Field: value (include unit after the number)

Entry CC(C)(C#Cc1ccc(-c2ccc(Cl)c3c(N(C(=O)c4ccccc4COP(=O)(O)O)S(C)(=O)=O)nn(CC(F)(F)F)c23)c([C@H](Cc2cc(F)cc(F)c2)NC(=O)Cn2nc(C(F)(F)F)c3c2C(F)(F)[C@@H]2C[C@H]32)n1)S(C)(=O)=O [Compound 22] ; solubility = 534 µg/mL

Let us examine a further case.
The recorded solubility for entry CC(C)(C#Cc1ccc(-c2ccc(Cl)c3c(N(C(=O)[C@H]4C[C@H](NC(=N)N)C4)S(C)(=O)=O)nn(CC(F)(F)F)c23)c([C@H](Cc2cc(F)cc(F)c2)NC(=O)Cn2nc(C(F)(F)F)c3c2C(F)(F)[C@@H]2C[C@H]32)n1)S(C)(=O)=O [Compound 9] equals 83 µg/mL

---

# RUN_DESCRIPTION: Kinetic solubility analysis (CLND: total chemiluminescent nitrogen determination)
# MEASUREMENT_PARAMETERS: 1×PBS buffer (pH 7.4), 1.0% DMSO, 24-hour incubation at ambient temperature, maximum theoretical concentration 100 μM
READOUT_NAME: pH 7 solubility (μM)
Enter your answer as a number in μM; do not include the unit.

Known pH 7 solubility results, listed for orientation:
Entry under test: "CC(C)(C#Cc1ccc(-c2ccc(Cl)c3c(N(C(=O)c4ccccc4COP(=O)(O)O)S(C)(=O)=O)nn(CC(F)(F)F)c23)c([C@H](Cc2cc(F)cc(F)c2)NC(=O)Cn2nc(C(F)(F)F)c3c2C(F)(F)[C@@H]2C[C@H]32)n1)S(C)(=O)=O" . Its pH 7 solubility was 100

Sample "CC(C)(C#Cc1ccc(-c2ccc(Cl)c3c(N(C(=O)[C@@H]4C[C@H]4C(=O)O)S(C)(=O)=O)nn(CC(F)(F)F)c23)c([C@H](Cc2cc(F)cc(F)c2)NC(=O)Cn2nc(C(F)(F)F)c3c2C(F)(F)[C@@H]2C[C@H]32)n1)S(C)(=O)=O" ; pH 7 solubility observed: 44

// sample "CC(C)(C#Cc1ccc(-c2ccc(Cl)c3c(N(C(=O)N4CC[C@@H]4CN(CC(=O)O)C(=O)OCOP(=O)(O)O)S(C)(=O)=O)nn(CC(F)(F)F)c23)c([C@H](Cc2cc(F)cc(F)c2)NC(=O)Cn2nc(C(F)(F)F)c3c2C(F)(F)[C@@H]2C[C@H]32)n1)S(C)(=O)=O" , its pH 7 solubility was 100

Below: the item to evaluate.
The molecule listed as "CC(C)(C#Cc1ccc(-c2ccc(Cl)c3c(N(C(=O)N4CCC[C@H]4COP(=O)(O)O)S(C)(=O)=O)nn(CC(F)(F)F)c23)c([C@H](Cc2cc(F)cc(F)c2)NC(=O)Cn2nc(C(F)(F)F)c3c2C(F)(F)[C@@H]2C[C@H]32)n1)S(C)(=O)=O" has a reported pH 7 solubility of 98

---

# RUN_DESCRIPTION: Solubility in simulated intestinal fluids (FaSSIF / FeSSIF)
# MEASUREMENT_PARAMETERS: fed state simulated intestinal fluid (FeSSIF), 25 °C, fessif, thermodynamic from solid
READOUT_NAME: solubility (µg/mL)
The figure you give is taken to be in µg/mL; do not add the unit.

Worked cases, answers included:
The recorded solubility for "CC(C)(C#Cc1ccc(-c2ccc(Cl)c3c(N(C(=O)N4CCC[C@H]4COP(=O)(O)O)S(C)(=O)=O)nn(CC(F)(F)F)c23)c([C@H](Cc2cc(F)cc(F)c2)NC(=O)Cn2nc(C(F)(F)F)c3c2C(F)(F)[C@@H]2C[C@H]32)n1)S(C)(=O)=O" is 536

The compound listed as "CC(C)(C#Cc1ccc(-c2ccc(Cl)c3c(N(C(=O)[C@@H]4C[C@@H]4COP(=O)(O)O)S(C)(=O)=O)nn(CC(F)(F)F)c23)c([C@H](Cc2cc(F)cc(F)c2)NC(=O)Cn2nc(C(F)(F)F)c3c2C(F)(F)[C@@H]2C[C@H]32)n1)S(C)(=O)=O" has a reported solubility of 355

Reported solubility for "CC(C)(C#Cc1ccc(-c2ccc(Cl)c3c(N(C(=O)N4CCOC[C@H]4C(=O)OCOP(=O)(O)O)S(C)(=O)=O)nn(CC(F)(F)F)c23)c([C@H](Cc2cc(F)cc(F)c2)NC(=O)Cn2nc(C(F)(F)F)c3c2C(F)(F)[C@@H]2C[C@H]32)n1)S(C)(=O)=O" was 139

Next:
Input "CC(C)(C#Cc1ccc(-c2ccc(Cl)c3c(N(C(=O)c4ccccc4C(=O)OCOP(=O)(O)O)S(C)(=O)=O)nn(CC(F)(F)F)c23)c([C@H](Cc2cc(F)cc(F)c2)NC(=O)Cn2nc(C(F)(F)F)c3c2C(F)(F)[C@@H]2C[C@H]32)n1)S(C)(=O)=O" . Output solubility: 487

Reported solubility ( "CC(C)(C#Cc1ccc(-c2ccc(Cl)c3c(N(C(=O)N4CCC[C@H]4CNC(=O)OCOP(=O)(O)O)S(C)(=O)=O)nn(CC(F)(F)F)c23)c([C@H](Cc2cc(F)cc(F)c2)NC(=O)Cn2nc(C(F)(F)F)c3c2C(F)(F)[C@@H]2C[C@H]32)n1)S(C)(=O)=O" ) = 306
